- systemTested: T1, mouse transferrin receptor (mTfR) fused to EGFP, on CHO cells (mouse, UniProt Q62351 1-763)
- T1 construct: whole, on cells; also called mouse TfR; CHO-mTfR-EGFP; not shown: EGFP
- T1 sequence (Q62351 whole entry, the tested form may be a part): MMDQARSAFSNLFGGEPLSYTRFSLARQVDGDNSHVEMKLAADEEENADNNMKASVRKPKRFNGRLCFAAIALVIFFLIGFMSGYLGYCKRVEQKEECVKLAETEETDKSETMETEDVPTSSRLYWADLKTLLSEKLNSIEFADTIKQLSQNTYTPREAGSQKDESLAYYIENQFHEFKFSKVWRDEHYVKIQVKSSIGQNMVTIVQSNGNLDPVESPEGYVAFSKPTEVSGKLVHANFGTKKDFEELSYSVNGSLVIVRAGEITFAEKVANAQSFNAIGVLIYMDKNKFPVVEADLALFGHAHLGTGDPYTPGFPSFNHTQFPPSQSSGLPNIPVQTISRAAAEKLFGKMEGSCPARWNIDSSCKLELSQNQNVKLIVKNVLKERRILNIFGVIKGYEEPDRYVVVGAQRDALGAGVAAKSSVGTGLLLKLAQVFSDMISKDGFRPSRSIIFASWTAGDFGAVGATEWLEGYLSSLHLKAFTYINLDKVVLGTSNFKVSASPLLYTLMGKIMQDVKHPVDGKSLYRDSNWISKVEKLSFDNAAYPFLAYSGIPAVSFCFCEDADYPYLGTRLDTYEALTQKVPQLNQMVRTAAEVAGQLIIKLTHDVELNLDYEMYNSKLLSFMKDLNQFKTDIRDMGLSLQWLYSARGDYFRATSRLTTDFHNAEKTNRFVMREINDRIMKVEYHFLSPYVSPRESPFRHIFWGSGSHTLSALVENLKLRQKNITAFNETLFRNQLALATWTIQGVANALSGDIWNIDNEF
- procedureSummary: apparent Kd, flow cytometry, CHO cells
attributeMeasured: Kd

Worked examples, 6 binders total:
VHH A16 (C5^V16) (VHH) VHH: EVQLVESGGGVVQPGGSLKLSCVASGTDFSINFIRWYRQAPGKQREFVAGFTATGNTNYADSMKGRFTISRDNTKNAVYLQIDSLKPEDTAVYYCYILDKWGQGTQVTVSS; 131 nM
C5^h16 (VHH) VHH: EVQLVESGGGLVQPGGSLRLSCAASGTDFSINFIRWYRQAPGKGLEFVAGFTATGNTNYADSVKGRFTISRDNSKNTLYLQMNSLRAEDTAVYYCYMLDKWGQGTLVTVSS; 582 nM
VHH A1 (C5^V1) (VHH) VHH: EVQLVESGGGVVQPGGSLKLSCVASGADFSINFIRWYRQAPGKQREFVAGFTATGNTNYADSMKGRFTISRDNTKNAVYLQIDSLKPEDTAVYYCYMLDKWGQGTQVTVSS; 259 nM
B4a (VHH) VHH: EVQLVESGGGLVQAGGSLRLSCTASGRTVSNYRMGWFRQTPGKEREFVAAIAWAGGSLTYADSVKGRFTISRDNAKNTVYLQMNSLEPTDTAVYYCKGSRIFPTRDYWGKGTQVTVSS; 409 nM
VHH A4 (C5^V4) (VHH) VHH: EVQLVESGGGVVQPGGSLKLSCVASGTDFSINFIRWYRQAPGKQREFVAGFTATGATNYADSMKGRFTISRDNTKNAVYLQIDSLKPEDTAVYYCYMLDKWGQGTQVTVSS; 179 nM
B8^V35 (VHH) VHH: EVQLVESGGGVVQPGGSLRLSCAASGEIRSINFMRWYRQAPGKQREWVAGFTRDGSLNYPDSAKGRFTISRDNAKNTVYLQIDSLKPEDTAVYYCYMLDTWGKGTQVTVSS; 513 nM

Determine its reported Kd: C5^V21 (VHH) VHH: EVQLVESGGGVVQPGGSLKLSCVASGTDFSINFIRWYRQAPGKQREFVAGWTATGNTNYADSMKGRFTISRDNTKNAVYLQIDSLKPEDTAVYYCYMLDKWGQGTQVTVSS
120 nM

Name the recorded Kd of the item C5^h25 (VHH) VHH: EVQLVESGGGVVQPGGSLRLSCAASGTDFSINFIRWVRQAPGKGLEFVAGFTATGNTNYADSVKGRFTISRDNAKNTLYLQIDSLRPEDTAVYYCYMLDKWGQGTQVTVSS in your answer.
755 nM

Report Kd for C5^h13 (VHH) VHH: EVQLVESGGGVVQPGGSLRLSCAASGTDFSINFIRWYRQAPGKGLEFVAGFTATGNTNYADSVKGRFTISRDNTKNTLYLQMNSLRPEDTAVYYCYMLDKWGQGTQVTVSS
554 nM

Report measured Kd; entry is B8^V2 (VHH) VHH: EVQLVESGGGVVQPGGSLRLSCAASGEIFSINFMRWYGQAPGKQREWVAGFTRDGSTNYPDSAKGRFTISRDNAKNTVYLQIDSLKPEDTAVYYCYMLDTWGQGTQVTVSS
0.2 nM

Supply Kd value. Item: B8^V39 (VHH) VHH: EVQLVESGGGVVQPGGSLRLSCAASGEIFKINFMRWYRQAPGKQREWVAGFTRDGSTNYPDSAKGRFTISRDNAKNTVYLQIDSLKPEDTAVYYCYMLDTWGQGTQVTVSS
1290 nM
